Kindly supply the reported self-cleavage kobs at 10000 uM GlcN6P values for the records listed here.
B1: glmS ribozyme (parent)
chain: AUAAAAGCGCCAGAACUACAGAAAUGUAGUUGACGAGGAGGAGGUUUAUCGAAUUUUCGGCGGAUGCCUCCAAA

Variants of: B1
ASSAY EXPLANATION: self-cleavage kobs at 10000 uM GlcN6P; higher = faster cleavage; RNA array
PROTOCOL CONDITIONS: with glucosamine-6-phosphate
This sample holds only a part of the variants without activity.

[[record]]
mutant = "C10U A15U"
result_value = "< 1e-05 s⁻¹"


For each of the items listed, what is its self-cleavage kobs at 10000 uM GlcN6P?
1. G13A A36C
2. C10U U46A U49A U65C C68G

Found:
1: < 1e-05 s⁻¹; 2: < 1e-05 s⁻¹

Lookup: Report self-cleavage kobs at 10000 uM GlcN6P for G40A G51C C67U please.
Found: < 1e-05 s⁻¹
